- study.system: UniProt P41145
- Sequence (P41145 whole entry): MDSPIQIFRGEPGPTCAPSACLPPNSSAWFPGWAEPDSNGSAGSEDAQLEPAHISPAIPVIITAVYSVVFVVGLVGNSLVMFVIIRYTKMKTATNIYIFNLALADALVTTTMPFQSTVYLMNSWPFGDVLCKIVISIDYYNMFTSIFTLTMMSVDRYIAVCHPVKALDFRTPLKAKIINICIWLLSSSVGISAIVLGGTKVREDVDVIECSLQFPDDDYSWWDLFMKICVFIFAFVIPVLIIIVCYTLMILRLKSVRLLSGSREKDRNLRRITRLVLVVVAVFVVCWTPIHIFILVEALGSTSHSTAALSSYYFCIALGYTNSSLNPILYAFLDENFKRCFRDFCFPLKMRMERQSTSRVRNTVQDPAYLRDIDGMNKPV
- protocol.description: Displacement of [3H]U69593 from human recombinant kappa opioid receptor expressed in CHO cells
measurement.type: pKi
Answers are plain numbers, as −log10 of the molar value.

mol.smiles | study.system | pKi
CC[C@]12CCN(CCc3ccccc3)C[C@H]1Oc1ccc(O)cc12 | UniProt P41145 | 5.63
CC[C@@]12CCN(C[C@@H](O)c3ccccc3)C[C@@H]1Oc1ccc(O)cc12 | UniProt P41145 | 6.38
CC[C@]12CCN(C[C@H](O)c3ccccc3)C[C@H]1Oc1ccc(O)cc12 | UniProt P41145 | 5.02
CC[C@@]12CCN(C)C[C@@H]1Oc1ccc(O)cc12 | UniProt P41145 | 6.35

// switching to the query compound
Please give the documented pKi of "CC[C@@]12CCN(C[C@H](O)c3ccccc3)C[C@@H]1Oc1ccc(O)cc12" 5.96

* * *

Mu-type opioid receptor (Homo sapiens) Ki data
Numbers only, in nM.

mol.smiles | study.system | Ki [nM]
CC[C@@]12CCNC[C@@H]1Oc1ccc(O)cc12 | Mu-type opioid receptor (Homo sapiens) | 48
CC[C@]12CCN(C)C[C@H]1Oc1ccc(O)cc12 | Mu-type opioid receptor (Homo sapiens) | 1330
CC[C@]12CCN(C[C@@H](O)c3ccccc3)C[C@H]1Oc1ccc(O)cc12 | Mu-type opioid receptor (Homo sapiens) | 600

I'm hoping you can list Ki for every compound here, please.
1. CC[C@]12CCN(C[C@H](O)c3ccccc3)C[C@H]1Oc1ccc(O)cc12
2. CC[C@@]12CCN(C[C@H](O)c3ccccc3)C[C@@H]1Oc1ccc(O)cc12

1330
80

* * *

Please provide measured Emax for the entries that follow.
- study.system: Mu-type opioid receptor (Homo sapiens, UniProt P35372)
- Sequence (P35372 whole entry): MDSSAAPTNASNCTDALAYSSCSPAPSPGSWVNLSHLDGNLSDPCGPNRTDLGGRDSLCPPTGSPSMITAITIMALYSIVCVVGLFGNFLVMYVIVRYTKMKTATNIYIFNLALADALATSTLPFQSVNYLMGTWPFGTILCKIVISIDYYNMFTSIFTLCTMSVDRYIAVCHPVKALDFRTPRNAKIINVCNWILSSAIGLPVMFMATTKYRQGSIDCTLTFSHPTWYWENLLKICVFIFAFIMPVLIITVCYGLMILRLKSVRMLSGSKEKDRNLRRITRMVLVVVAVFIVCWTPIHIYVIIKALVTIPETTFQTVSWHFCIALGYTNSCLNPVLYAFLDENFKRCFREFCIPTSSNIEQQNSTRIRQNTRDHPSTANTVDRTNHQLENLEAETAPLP
- protocol.description: Agonist activity at human recombinant mu opioid receptor expressed in CHO cells assessed as stimulation of [35S]GTPgammaS binding after 3 hrs by liquid scintillation counting relative to DAMGO
- Type: functional, cell-based
Numbers only, in %.

# count of solved cases: 2
mol.smiles | uom | reported.value
CC[C@]12CCN(C[C@@H](O)c3ccccc3)C[C@H]1Oc1ccc(O)cc12 | % | 100
CC[C@]12CCN(C)C[C@H]1Oc1ccc(O)cc12 | % | 45

I'm hoping you can list Emax for every compound here, please.
1. CC[C@]12CCN(C[C@H](O)c3ccccc3)C[C@H]1Oc1ccc(O)cc12
2. CC[C@]12CCNC[C@H]1Oc1ccc(O)cc12
3. CC[C@]12CCN(CCc3ccccc3)C[C@H]1Oc1ccc(O)cc12

1: 36; 2: 97; 3: 84

* * *

- study.system: Delta-type opioid receptor (Homo sapiens)
- Sequence (P41143 whole entry): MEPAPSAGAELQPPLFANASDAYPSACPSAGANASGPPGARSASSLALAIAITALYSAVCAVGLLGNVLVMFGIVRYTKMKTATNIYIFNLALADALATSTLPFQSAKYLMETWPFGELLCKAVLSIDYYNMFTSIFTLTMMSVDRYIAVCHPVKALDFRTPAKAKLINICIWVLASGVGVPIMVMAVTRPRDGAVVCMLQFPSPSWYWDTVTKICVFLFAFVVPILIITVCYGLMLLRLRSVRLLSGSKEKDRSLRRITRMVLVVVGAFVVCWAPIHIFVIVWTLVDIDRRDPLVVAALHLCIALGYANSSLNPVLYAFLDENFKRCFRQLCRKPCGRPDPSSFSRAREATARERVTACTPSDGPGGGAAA
- protocol.description: Displacement of [3H]DADLE from human recombinant delta opioid receptor expressed in CHO cells
pKi: −log10 of the molar value.
Each entry gets no if its pKi stays under 6, and yes if its pKi is 6 or above.

Examples from the recorded data:
mol.smiles | assigned.category
CC[C@]12CCN(C[C@H](O)c3ccccc3)C[C@H]1Oc1ccc(O)cc12 | no
CC[C@]12CCN(C)C[C@H]1Oc1ccc(O)cc12 | no
CC[C@]12CCN(C[C@@H](O)c3ccccc3)C[C@H]1Oc1ccc(O)cc12 | no

Please indicate if the recorded pKi for "CC[C@@]12CCN(C[C@@H](O)c3ccccc3)C[C@@H]1Oc1ccc(O)cc12" meets or exceeds 6. yes

Please indicate if the recorded pKi for "CC[C@]12CCN(CCc3ccccc3)C[C@H]1Oc1ccc(O)cc12" meets or exceeds 6. no
